Hello, the source for this data is PubChem BioAssay AID463229, in case you need it.

Tested on: INS-1E rat beta cells, no cytokines, CellTiter-Glo ATP, 48 h
Method Notes: cytokine-free beta-cell viability effect – INS-1E rat cells, ATP luminescence, cherry pick, counter-screen for beta-cell apoptosis protection project, dose response (AID 463229)
Activity calls are given as the source filed them.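 How the source made its calls: active means compounds raising the signal whose fitted half-maximal concentration is at or below their top tested dose (cut at about 25 µM in these data); inconclusive means flat fit at 30 to 70% activity, or a poor fit; inactive means the rest.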
Reported Property: AC50

Q) Any idea what its AC50 is? The compound is "Cn1c(=O)[nH]c(=O)c2c1nc(N1CCN(C(c3ccccc3)c3ccccc3)CC1)n2CCO"
A) 10.8 µM

Q) Need AC50 of Cc1[nH]n(-c2ccccc2)c(=O)c1/C=N\NC(=O)C1COc2ccccc2O1 (centres undefined) , thanks.
A) 14 µM

Q) Field request: AC50 | item: "Cc1ccc(-c2csc(NC(=O)c3c(C)noc3C)n2)s1"
A) 4.85 µM

Q) Would you kindly share the measured AC50 for "Cc1ccc(C)n1-c1ccc(C(=O)Nc2ccccc2)cc1" ?
A) > 26 µM (inactive)

Q) Report AC50 for "CCOc1ccc(C(=O)N/N=C(\c2ccccc2)c2ccccn2)cc1" please.
A) 4.89 µM

Q) If you can, please state the reported AC50 value of "Clc1ccccc1Nc1nnc(-c2ccncc2)s1" .
A) 4.64 µM

Q) Please look up its AC50: "C#CCOCCOCCOCCNc1nc(N2CCN(C(=O)CCCCCCCCCCNC(=O)[C@@H](CCSC)n3cc(CCO)nn3)CC2)nc(N2CCN(C(=O)CCCCCCCCCCNC(=O)[C@H]([C@@H](C)CC)n3cc(CCCCCN)nn3)CC2)n1"
A) 12.9 µM

Q) Record request: AC50 value, item "Cc1ccc(-n2c(-c3ccccc3)c[n+]3c2CCc2ccccc2-3)c(C)c1"
A) 1.91 µM

Q) Item under review: "CCCCCCCCn1c(=O)c(C(=O)OC)c(N)c2ccccc21" . Reported AC50?
A) 4.89 µM
